assay: Stability in cynomolgus monkey fecal homogenate; format: in vitro ADME; conditions: 20% fecal homogenate (supernatant), pH 6.8, 20% cynomolgus monkey fecal homogenate, anaerobic, 37° C., read-out: t½: Monkey Feces anaerobic (converted)
Bridge positions count the residues as written; N and C are the ends. Square brackets hold non-standard residues; d marks the D form. Peptide text beside a SMILES is read from it. Trp(7-Me) = Cc1cccc2c(C[C@H](N)C(=O)O)c[nH]c12; 2Nal = N[C@@H](Cc1ccc2ccccc2c1)C(=O)O; AEF = NCCOc1ccc(C[C@H](N)C(=O)O)cc1; Pen = CC(C)(S)[C@H](N)C(=O)O; αMeK = C[C@](N)(CCCCN)C(=O)O; Dab = NCC[C@H](N)C(=O)O
Please go through the items and note down their half-life at 20 μM.

// each compound listed below needs its half-life at 20 μM
1. CC(=O)NCCCC[C@@H]1NC(=O)[C@H](Cc2c[nH]c3c(C)cccc23)NC(=O)[C@H]([C@@H](C)O)NC(=O)[C@H](CCCCNC(C)=O)NC(=O)[C@@H](NC(C)=O)C(C)(C)SSC(C)(C)[C@@H](C(=O)N[C@@H](Cc2ccc(OCCN)cc2)C(=O)N[C@@H](Cc2ccc3ccccc3c2)C(=O)N[C@@](C)(CCCCN)C(=O)N[C@@H](CCCCNC(C)=O)C(=O)N[C@@H](CC(N)=O)C(=O)N[C@H](CC(C)C)C(N)=O)NC1=O [compound 330] (Ac-[Pen]K(Ac)T[Trp(7-Me)]K(Ac)[Pen][AEF][2Nal][αMeK]K(Ac)N[dL]-NH2; disulfide 1-6)
2. CCCCCCCC(=O)NCCCC[C@H](NC(=O)[C@](C)(CCCCN)NC(=O)[C@H](Cc1ccc2ccccc2c1)NC(=O)[C@H](Cc1ccc(OCCN)cc1)NC(=O)[C@H]1NC(=O)[C@H](CCCCNC(C)=O)NC(=O)[C@H](Cc2c[nH]c3c(C)cccc23)NC(=O)[C@H]([C@@H](C)O)NC(=O)[C@H](CC(N)=O)NC(=O)[C@@H](NC(C)=O)C(C)(C)SSC1(C)C)C(=O)N[C@@H](CC(N)=O)C(=O)N[C@H](CC(C)C)C(N)=O
3. CC(=O)NCCCC[C@@H]1NC(=O)[C@H](Cc2c[nH]c3c(C)cccc23)NC(=O)[C@H]([C@@H](C)O)NC(=O)[C@H](CCNC(C)=O)NC(=O)[C@@H](NC(C)=O)C(C)(C)SSC(C)(C)[C@@H](C(=O)N[C@@H](Cc2ccc(OCCN)cc2)C(=O)N[C@@H](Cc2ccc3ccccc3c2)C(=O)N[C@@](C)(CCCCN)C(=O)N[C@@H](CCCCNC(C)=O)C(=O)N[C@@H](CC(N)=O)C(=O)N[C@H](CC(C)C)C(N)=O)NC1=O [compound 335] (Ac-[Pen][Dab](Ac)T[Trp(7-Me)]K(Ac)[Pen][AEF][2Nal][αMeK]K(Ac)N[dL]-NH2; disulfide 1-6)
4. CC(=O)NCCCC[C@@H]1NC(=O)[C@H](Cc2c[nH]c3c(C)cccc23)NC(=O)[C@H]([C@@H](C)O)NC(=O)[C@H](CC(N)=O)NC(=O)[C@@H](NC(C)=O)C(C)(C)SSC(C)(C)[C@@H](C(=O)N[C@@H](Cc2ccc(OCCN)cc2)C(=O)N[C@@H](Cc2ccc3ccccc3c2)C(=O)N[C@@](C)(CC(C)C)C(=O)N[C@@H](CCCCNC(C)=O)C(=O)N[C@@H](CC(N)=O)C(=O)N[C@H](CC(N)=O)C(N)=O)NC1=O

Reply text:
1: > 24 h; 2: > 24 h; 3: > 24 h; 4: > 24 h

---

experiment: Stability in simulated intestinal fluid (SIF); type: in vitro ADME; conditions: simulated intestinal fluid with pancreatin, pH 6.8, 37° C., matrix is 100 fold dilution of standard SIF concentration, read-out: SIF t½ (converted)
Bridge positions count the residues as written; N and C are the ends. Square brackets hold non-standard residues; d marks the D form. Peptide text beside a SMILES is read from it. Trp(7-Me) = Cc1cccc2c(C[C@H](N)C(=O)O)c[nH]c12; 2Nal = N[C@@H](Cc1ccc2ccccc2c1)C(=O)O; AEF = NCCOc1ccc(C[C@H](N)C(=O)O)cc1; Cit = NC(=O)NCCC[C@H](N)C(=O)O; Pen = CC(C)(S)[C@H](N)C(=O)O; αMeK = C[C@](N)(CCCCN)C(=O)O; Aib = CC(C)(N)C(=O)O
observation_type: half-life at 20 μM (h)
Answers are plain numbers, in h.

CC(=O)NCCCC[C@H](NC(=O)[C@](C)(CC(C)C)NC(=O)[C@H](Cc1ccc2ccccc2c1)NC(=O)[C@H](Cc1ccc(OCCN)cc1)NC(=O)[C@H]1NC(=O)[C@H](CCC(N)=O)NC(=O)[C@H](Cc2c[nH]c3c(C)cccc23)NC(=O)[C@H]([C@@H](C)O)NC(=O)[C@H](CC(N)=O)NC(=O)[C@@H](NC(C)=O)C(C)(C)SSC1(C)C)C(=O)N[C@H](CO)C(=O)NCCC(N)=O: 19

Now consider the entry below.
Reported half-life at 20 μM of CC(=O)NCCCC[C@H](NC(=O)[C@](C)(CCCCN)NC(=O)[C@H](Cc1ccc2ccccc2c1)NC(=O)[C@H](Cc1ccc(OCCN)cc1)NC(=O)[C@H]1NC(=O)[C@H](CCCNC(N)=O)NC(=O)[C@H](Cc2c[nH]c3c(C)cccc23)NC(=O)[C@H]([C@@H](C)O)NC(=O)[C@H](CC(N)=O)NC(=O)[C@@H](NC(C)=O)C(C)(C)SSC1(C)C)C(=O)N[C@@H](CC(N)=O)C(=O)NC(C)(C)C(=O)N[C@@H](C)C(N)=O [compound 342] (Ac-[Pen]NT[Trp(7-Me)][Cit][Pen][AEF][2Nal][αMeK]K(Ac)N[Aib]A-NH2; disulfide 1-6) : 16

---

Please go through the items and note down their half-life at 20 μM.
assay: Stability in rat plasma; assay type: in vitro ADME; settings: both sexes, SD rat plasma, EDTA, 37° C., read-out: t½: Rat Plasma EDTA (converted)
Bridge positions count the residues as written; N and C are the ends. Square brackets hold non-standard residues; d marks the D form. Peptide text beside a SMILES is read from it. His(π-Bom) = N[C@@H](Cc1cncn1COCc1ccccc1)C(=O)O; Trp(7-Me) = Cc1cccc2c(C[C@H](N)C(=O)O)c[nH]c12; 2Nal = N[C@@H](Cc1ccc2ccccc2c1)C(=O)O; AEF = NCCOc1ccc(C[C@H](N)C(=O)O)cc1; Pen = CC(C)(S)[C@H](N)C(=O)O; αMeK = C[C@](N)(CCCCN)C(=O)O; Aib = CC(C)(N)C(=O)O; βAla = NCCC(=O)O

CC(=O)NCCCC[C@@H]1NC(=O)[C@H](Cc2c[nH]c3c(C)cccc23)NC(=O)[C@H]([C@@H](C)O)NC(=O)[C@H](CC(N)=O)NC(=O)[C@@H](NC(C)=O)C(C)(C)SSC(C)(C)[C@@H](C(=O)N[C@@H](Cc2cncn2COCc2ccccc2)C(=O)N[C@@H](Cc2ccc3ccccc3c2)C(=O)N[C@@](C)(CCCCN)C(=O)N[C@@H](CCCCNC(C)=O)C(=O)N[C@@H](CC(N)=O)C(=O)N[C@H](CC(C)C)C(N)=O)NC1=O [compound 291] (Ac-[Pen]NT[Trp(7-Me)]K(Ac)[Pen][His(π-Bom)][2Nal][αMeK]K(Ac)N[dL]-NH2; disulfide 1-6): > 24 h
CC(=O)NCCCC[C@H](NC(=O)[C@](C)(CCCCN)NC(=O)[C@H](Cc1ccc2ccccc2c1)NC(=O)[C@H](Cc1ccc(OCCN)cc1)NC(=O)[C@H]1NC(=O)[C@H](CCCCNC(=O)C(C)(C)N)NC(=O)[C@H](Cc2c[nH]c3c(C)cccc23)NC(=O)[C@H]([C@@H](C)O)NC(=O)[C@H](CC(N)=O)NC(=O)[C@@H](NC(C)=O)C(C)(C)SSC1(C)C)C(=O)N[C@@H](CC(N)=O)C(=O)N[C@H](CC(C)C)C(N)=O: > 24 h

// each compound listed below needs its half-life at 20 μM
1. CC(=O)NCCCC[C@H](NC(=O)[C@](C)(CCCCN)NC(=O)[C@H](Cc1ccc2ccccc2c1)NC(=O)[C@H](Cc1ccc(OCCN)cc1)NC(=O)[C@H]1NC(=O)[C@H](CCC(N)=O)NC(=O)[C@H](Cc2c[nH]c3c(C)cccc23)NC(=O)[C@H]([C@@H](C)O)NC(=O)[C@H](CC(N)=O)NC(=O)[C@@H](NC(C)=O)C(C)(C)SSC1(C)C)C(=O)N[C@@H](CC(N)=O)C(=O)NCCC(N)=O
2. CC(=O)NCCCC[C@H](NC(=O)[C@](C)(CCCCN)NC(=O)[C@H](Cc1ccc2ccccc2c1)NC(=O)[C@H](Cc1ccc(OCCN)cc1)NC(=O)[C@H]1NC(=O)[C@H](CCC(N)=O)NC(=O)[C@H](Cc2c[nH]c3c(C)cccc23)NC(=O)[C@H]([C@@H](C)O)NC(=O)C(C)(C)NC(=O)[C@@H](NC(C)=O)C(C)(C)SSC1(C)C)C(=O)N[C@@H](CC(N)=O)C(=O)NCCC(N)=O [compound 240] (Ac-[Pen][Aib]T[Trp(7-Me)]Q[Pen][AEF][2Nal][αMeK]K(Ac)N[βAla]-NH2; disulfide 1-6)
3. CCCCC(=O)NCCCC[C@H](NC(=O)[C@](C)(CCCCN)NC(=O)[C@H](Cc1ccc2ccccc2c1)NC(=O)[C@H](Cc1ccc(OCCN)cc1)NC(=O)[C@H]1NC(=O)[C@H](CCCCNC(C)=O)NC(=O)[C@H](Cc2c[nH]c3c(C)cccc23)NC(=O)[C@H]([C@@H](C)O)NC(=O)[C@H](CC(N)=O)NC(=O)[C@@H](NC(C)=O)C(C)(C)SSC1(C)C)C(=O)N[C@@H](CC(N)=O)C(=O)N[C@H](CC(C)C)C(N)=O

Reply text:
["> 24 h", "8 h", "> 24 h"]

Value source: patent US11041000B2
